target: Mannose-6-phosphate isomerase (Homo sapiens) (UniProt P34949); assay: MPI inhibition at elevated mannose 6-phosphate – biochemical, fluorescence intensity, high mannose 6-phosphate, primary screen (AID 1220); conditions: recombinant PMI enzyme, coupled fluorescence intensity; at 20 µM; stronger effect = higher value
Sequence (P34949 whole entry, looked up): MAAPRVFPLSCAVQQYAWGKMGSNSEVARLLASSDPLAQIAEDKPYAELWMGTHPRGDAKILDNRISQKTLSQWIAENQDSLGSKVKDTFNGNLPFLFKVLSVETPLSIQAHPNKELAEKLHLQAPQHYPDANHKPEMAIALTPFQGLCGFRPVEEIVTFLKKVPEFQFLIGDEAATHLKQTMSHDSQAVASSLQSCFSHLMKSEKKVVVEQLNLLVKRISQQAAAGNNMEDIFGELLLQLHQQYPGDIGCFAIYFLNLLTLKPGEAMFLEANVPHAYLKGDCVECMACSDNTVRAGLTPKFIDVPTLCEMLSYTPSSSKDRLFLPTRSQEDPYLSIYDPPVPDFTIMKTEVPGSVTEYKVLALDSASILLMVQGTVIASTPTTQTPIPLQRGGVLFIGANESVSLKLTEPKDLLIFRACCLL
The campaign covered roughly 190,000 compounds. About 1,300 (0.68%) were called active. Many of the other results were omitted from the sample, so actives are more common in it than they were.
Below: a set of entries, each annotated with reported inhibition.
Quick note: give the figure in %, leave out the unit.

Given item `CCN(CC)C(=S)SCC(=O)c1ccccc1` , the value recorded as its inhibition is 7.7

Given item `CC(C)c1ccc(/C=N/NC(=O)c2cccc(Cl)c2)cc1` , the value recorded as its inhibition is -5.5

Given item `O=C(O)CCC(=O)Nc1ccc(C(=O)OCC(=O)c2ccc(Cl)cc2Cl)cc1` , the value recorded as its inhibition is 6.3

Given item `Cc1ccc(NC(=O)CCNC(=O)c2ccco2)cc1F` , the value recorded as its inhibition is -1.2

Given item `CC1(C)Cc2ccccc2/C(=C/C(=O)N2CCCCCC2)N1` , the value recorded as its inhibition is -22.6

Given item `Nc1nc(NCc2ccco2)nn1-c1ccccc1` , the value recorded as its inhibition is 2

Given item `N#Cc1cc([N+](=O)[O-])ccc1N1CCN(c2ccccc2O)CC1` , the value recorded as its inhibition is 10.8

Given item `CSc1cccc(NC(=O)C2CCN(S(C)(=O)=O)CC2)c1` , the value recorded as its inhibition is 5.6

Given item `O=C(Cc1ccc(F)cc1)N/N=C/c1ccccn1` , the value recorded as its inhibition is 16.5

Given item `Cc1ccc(C)c2nc3sc(C(=O)N4CCOCC4)c(N)c3cc12` , the value recorded as its inhibition is 2.2

Given item `CCN(CC)C(=S)SSC(=S)N(CC)CC` , the value recorded as its inhibition is 0.3

Given item C=CCC1(O)C(=O)N2C(=C1C(=O)N1CCOCC1)c1ccccc1CC2(C)C (configuration not stated) , the value recorded as its inhibition is -1.7
